Recorded inhibition at 10 µM by entry
Molecular target: Skp2 (Homo sapiens)
Sequence (Q13309 whole entry, species assumed): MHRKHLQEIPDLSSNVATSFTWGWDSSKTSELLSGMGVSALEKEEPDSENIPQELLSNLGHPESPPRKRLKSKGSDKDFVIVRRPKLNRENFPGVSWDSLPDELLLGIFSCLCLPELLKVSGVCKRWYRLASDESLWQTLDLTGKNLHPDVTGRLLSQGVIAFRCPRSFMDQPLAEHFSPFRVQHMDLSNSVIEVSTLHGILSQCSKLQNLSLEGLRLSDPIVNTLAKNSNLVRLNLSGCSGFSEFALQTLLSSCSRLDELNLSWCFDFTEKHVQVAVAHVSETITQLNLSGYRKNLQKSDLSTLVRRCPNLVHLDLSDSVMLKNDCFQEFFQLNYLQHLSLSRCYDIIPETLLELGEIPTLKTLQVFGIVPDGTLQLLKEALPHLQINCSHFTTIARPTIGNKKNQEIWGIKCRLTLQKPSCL
Sequence (P63208 whole entry partner, species assumed): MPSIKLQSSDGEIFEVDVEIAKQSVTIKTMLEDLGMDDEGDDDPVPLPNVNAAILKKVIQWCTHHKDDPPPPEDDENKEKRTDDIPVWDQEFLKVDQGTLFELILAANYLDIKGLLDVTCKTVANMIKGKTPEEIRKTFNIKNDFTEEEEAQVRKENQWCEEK
Sequence (Q13616 whole entry partner, species assumed): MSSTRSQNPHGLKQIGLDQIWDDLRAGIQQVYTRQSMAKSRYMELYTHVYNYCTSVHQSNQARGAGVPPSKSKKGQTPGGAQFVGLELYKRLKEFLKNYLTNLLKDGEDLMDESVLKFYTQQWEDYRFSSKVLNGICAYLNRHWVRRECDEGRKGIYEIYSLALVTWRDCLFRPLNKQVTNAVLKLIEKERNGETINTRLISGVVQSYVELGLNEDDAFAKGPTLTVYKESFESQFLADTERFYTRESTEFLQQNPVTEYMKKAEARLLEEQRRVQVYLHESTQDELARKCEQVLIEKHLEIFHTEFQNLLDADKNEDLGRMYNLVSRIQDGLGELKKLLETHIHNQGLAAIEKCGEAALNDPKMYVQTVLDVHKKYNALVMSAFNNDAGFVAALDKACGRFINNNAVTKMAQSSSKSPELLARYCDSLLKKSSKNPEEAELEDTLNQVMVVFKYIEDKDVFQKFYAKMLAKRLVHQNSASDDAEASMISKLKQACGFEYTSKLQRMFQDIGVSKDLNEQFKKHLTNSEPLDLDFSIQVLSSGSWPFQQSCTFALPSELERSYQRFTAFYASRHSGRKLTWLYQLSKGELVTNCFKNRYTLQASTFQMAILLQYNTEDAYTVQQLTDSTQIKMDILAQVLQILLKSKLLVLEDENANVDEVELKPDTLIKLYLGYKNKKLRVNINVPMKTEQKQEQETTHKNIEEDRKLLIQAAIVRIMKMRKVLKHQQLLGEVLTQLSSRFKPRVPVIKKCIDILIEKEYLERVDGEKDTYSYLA
Sequence (P62877 whole entry partner, species assumed): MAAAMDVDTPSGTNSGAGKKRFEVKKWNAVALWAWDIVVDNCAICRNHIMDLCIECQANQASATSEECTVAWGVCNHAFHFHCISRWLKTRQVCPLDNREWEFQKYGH
Experiment: Selectivity assay vs other E3s: Skp2
Format: biochemical
Settings: read-out: % Inhibition Skp2 @ 10 μM
Starred links: 1 amine or outer side, 2 acyl side, 3 side chain; linkers in the order of their positions; H or OH if unused. Non-standard residues stand in square brackets, D forms with d. Residues, ends and D or L forms follow the SMILES beside them. *: point of attachment. Phe(4-NO2) = N[C@@H](Cc1ccc([N+](=O)[O-])cc1)C(=O)O; Benzenesulfonyl(4-OMe) = COc1ccc(S(=O)(=O)*)cc1; Phe(3-F) = N[C@@H](Cc1cccc(F)c1)C(=O)O; Phe(2-F) = N[C@@H](Cc1ccccc1F)C(=O)O; Maleoyl = O=C(/C=C\C(=O)[*:2])[*:1]; Suc = O=C(CCC(=O)[*:2])[*:1]; Tos = Cc1ccc(S(=O)(=O)*)cc1; Propionyl = CCC(=O)*; Bz = O=C(c1ccccc1)*
The response must be a number in % with no trailing unit.

Please review the following examples before continuing.
{"COMPOUND": "COc1ccc(S(=O)(=O)N[C@@H](CC(=O)O)C(=O)N[C@@H](CCC(=O)O)C(=O)NCC(=O)N[C@@H](Cc2cccc(F)c2)C(=O)N[C@@H](Cc2c[nH]c3ccccc23)C(=O)N[C@@H](CCC(=O)O)C(N)=O)cc1 [4-(MeO)-PhSO2-DEGF(3F)WE-NH2] ({Benzenesulfonyl(4-OMe)}-DEG[Phe(3-F)]WE-NH2)", "OUTCOME_MEASURE": "inhibition at 10 µM", "ENDPOINT_RESULT": 15}
{"COMPOUND": "NC(=O)[C@H](CCC(=O)O)NC(=O)[C@H](Cc1ccc([N+](=O)[O-])cc1)NC(=O)[C@H](Cc1cccc(F)c1)NC(=O)CNC(=O)[C@H](CCC(=O)O)NC(=O)/C=C\\C(=O)O [UBP008, Mal-EGF(3F)F(4NO2)E-NH2] (Maleoyl-EG[Phe(3-F)][Phe(4-NO2)]E-NH2)", "OUTCOME_MEASURE": "inhibition at 10 µM", "ENDPOINT_RESULT": 0}
{"COMPOUND": "CCC(=O)N[C@H](CC(=O)O)C(=O)N[C@@H](CCC(=O)O)C(=O)NCC(=O)N[C@@H](Cc1cccc(F)c1)C(=O)N[C@@H](Cc1c[nH]c2ccccc12)C(=O)N[C@@H](CCC(=O)O)C(N)=O [UBP019, Et(CO)-dEGF(3F)WE-NH2] (Propionyl-[dD]EG[Phe(3-F)]WE-NH2)", "OUTCOME_MEASURE": "inhibition at 10 µM", "ENDPOINT_RESULT": 1}
{"COMPOUND": "COc1ccc(C[C@H](NC(=O)[C@H](Cc2ccccc2F)NC(=O)CNC(=O)[C@H](CCC(=O)O)NC(=O)CCC(=O)O)C(=O)N[C@@H](CCC(=O)O)C(N)=O)cc1 [UBP006, Suc-EGF(2F)Y(Me)E-NH2] (Suc-EG[Phe(2-F)]Y(Me)E-NH2)", "OUTCOME_MEASURE": "inhibition at 10 µM", "ENDPOINT_RESULT": 0}
{"COMPOUND": "NC(=O)[C@H](CCC(=O)O)NC(=O)[C@H](Cc1c[nH]c2ccccc12)NC(=O)[C@H](Cc1cccc(F)c1)NC(=O)CNC(=O)[C@H](CCC(=O)O)NC(=O)[C@@H](CC(=O)O)NC(=O)c1ccccc1 [UBP018, Bz-dEGF(3F)WE-NH2] (Bz-[dD]EG[Phe(3-F)]WE-NH2)", "OUTCOME_MEASURE": "inhibition at 10 µM", "ENDPOINT_RESULT": 0}

Turning to the following compound.
Kindly note the recorded inhibition at 10 µM for Cc1ccc(S(=O)(=O)N[C@H](CC(=O)O)C(=O)N[C@@H](CCC(=O)O)C(=O)NCC(=O)N[C@@H](Cc2cccc(F)c2)C(=O)N[C@@H](Cc2c[nH]c3ccccc23)C(=O)N[C@@H](CC(=O)O)C(N)=O)cc1 [UBP027, Ts-dEGF(3F)WD-NH2] (Tos-[dD]EG[Phe(3-F)]WD-NH2) , which is 4
